- TEST SYSTEM: Muscarinic acetylcholine receptor M1 and M3 (Homo sapiens) (UniProt P20309+P11229)
- Sequence (P11229 whole entry, looked up): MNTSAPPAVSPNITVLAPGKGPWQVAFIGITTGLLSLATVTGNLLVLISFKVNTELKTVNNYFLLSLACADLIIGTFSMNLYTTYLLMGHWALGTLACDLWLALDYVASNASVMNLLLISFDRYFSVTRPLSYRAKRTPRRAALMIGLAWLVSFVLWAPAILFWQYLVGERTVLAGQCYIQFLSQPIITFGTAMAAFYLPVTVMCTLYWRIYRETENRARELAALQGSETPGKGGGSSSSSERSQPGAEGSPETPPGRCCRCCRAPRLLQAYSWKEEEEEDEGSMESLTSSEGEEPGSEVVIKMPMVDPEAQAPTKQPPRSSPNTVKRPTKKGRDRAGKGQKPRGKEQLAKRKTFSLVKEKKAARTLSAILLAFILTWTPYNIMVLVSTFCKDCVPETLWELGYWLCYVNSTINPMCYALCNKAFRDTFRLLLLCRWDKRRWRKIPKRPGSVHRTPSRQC
- Sequence (P20309 whole entry, looked up): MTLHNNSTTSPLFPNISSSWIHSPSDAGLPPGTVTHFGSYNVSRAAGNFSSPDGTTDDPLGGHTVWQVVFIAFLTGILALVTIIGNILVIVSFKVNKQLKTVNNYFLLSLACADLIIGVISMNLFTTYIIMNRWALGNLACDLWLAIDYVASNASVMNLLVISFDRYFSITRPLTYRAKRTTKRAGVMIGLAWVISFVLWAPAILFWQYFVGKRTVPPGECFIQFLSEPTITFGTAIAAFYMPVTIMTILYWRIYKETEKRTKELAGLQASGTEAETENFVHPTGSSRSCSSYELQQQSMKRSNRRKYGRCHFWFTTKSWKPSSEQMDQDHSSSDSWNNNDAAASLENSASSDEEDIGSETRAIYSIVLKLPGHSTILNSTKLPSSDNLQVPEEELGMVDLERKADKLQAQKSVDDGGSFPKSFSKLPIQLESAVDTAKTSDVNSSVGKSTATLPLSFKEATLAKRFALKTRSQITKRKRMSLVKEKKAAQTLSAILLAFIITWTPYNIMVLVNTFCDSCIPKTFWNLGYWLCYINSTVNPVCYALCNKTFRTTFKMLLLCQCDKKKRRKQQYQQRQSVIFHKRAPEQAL
- PROCEDURE DETAILS: Selectivity for cloned muscarinic M3 receptor over cloned muscarinic M1 receptor
Lab note: cut-off is 1. Strictly less in Ratio IC50 is Y. Exactly 1 or more is N.

mol=CN1[C@@H]2CC[C@H]1C[C@H](OC(=O)N(Cc1ccoc1)c1ccccc1)C2 test_system="Muscarinic acetylcholine receptor M1 and M3 (Homo sapiens) (UniProt P20309+P11229)" classification=N
mol=C[N+]1(C)[C@@H]2CC[C@H]1C[C@H](OC(=O)N(Cc1ccccc1)c1cccs1)C2.[Br-] test_system="Muscarinic acetylcholine receptor M1 and M3 (Homo sapiens) (UniProt P20309+P11229)" classification=Y
mol=COc1cccc(CN(C(=O)O[C@@H]2C[C@H]3CC[C@@H](C2)N3C)c2ccccc2)c1 test_system="Muscarinic acetylcholine receptor M1 and M3 (Homo sapiens) (UniProt P20309+P11229)" classification=Y

Hello, is Ratio IC50 of the following molecule strictly smaller than 1? "CN1[C@@H]2CC[C@H]1C[C@H](OC(=O)N(Cc1ccc(Br)cc1)c1ccccc1)C2"
N

Input "CN1[C@@H]2CC[C@H]1C[C@@H](OC(=O)N(Cc1ccc(C#N)cc1)c1ccsc1)C2" ; condition: Ratio IC50 strictly below 1. Does it hold?
Y

is_below(Ratio IC50, 1) for "Cc1ccsc1CN(C(=O)O[C@H]1C[C@H]2CC[C@@H](C1)[N+]2(C)C)c1ccccc1" ?
Y

Does "Cc1ccoc1CN(C(=O)O[C@@H]1C[C@H]2CC[C@@H](C1)N2C)c1ccccc1" have Ratio IC50 strictly under 1?
Y

Lab note: confirm whether the reported Ratio IC50 for this molecule is below 1, equality not counting. molecule: "CN1[C@@H]2CC[C@H]1C[C@H](OC(=O)N(Cc1ccccc1)c1ccsc1)C2"
N

hey, is Ratio IC50 for "CN1[C@@H]2CC[C@H]1C[C@@H](OC(=O)N(CC1CCCCC1)c1ccsc1)C2" lower than 1 or not?
N

Quick check: does "Cc1ccc(CN(C(=O)O[C@@H]2C[C@H]3CC[C@@H](C2)N3C)c2ccccc2)s1" have Ratio IC50 under 1?
N

Strictly below 1 in Ratio IC50? "CN1[C@@H]2CC[C@H]1C[C@@H](OC(=O)N(Cc1ccc(C#N)cc1)c1ccccc1)C2"
Y

# check: Ratio IC50 < 1 for "C[N+]1(C)[C@@H]2CC[C@H]1C[C@H](OC(=O)N(Cc1cccc(Br)c1)c1ccccc1)C2"
Y
